Data origin, for the record: patent US20250011363A1

So I've got a bunch of binders here, and I need their Binding affinity values.
- assayed.system: acetylcholine receptor
- measurement.protocol: SPR, peptide at 10 uM
Give bare numbers, in RU.

Worked examples follow.
- binder: "RIDAKK [6mer-2-1185]"
  assay.result: 42
- binder: "KAAEKK [6mer-2-1127]"
  assay.result: 42
- binder: "RKKFRK [6mer-2-1114]"
  assay.result: 34

# batch size: 5; output Binding affinity per entry
1. RIKAKK [6mer-2-1165]
2. RDNIRK [6mer-2-1158]
3. KKADRK [6mer-2-1191]
4. RMSHRR [6mer-2-1198]
5. RMTKKK [6mer-2-1110]

**A:**
[30, 37, 35, 27, 37]
